B1: FUT8 (parent)
chain: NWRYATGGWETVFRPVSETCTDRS

Variants of: B1
method description: protein stability index of a GFP-peptide fusion (GPS, HEK-293T) (PSI 1-6); higher = more stable;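 note: lentivirally expressed fusions sorted by FACS into six bins by GFP to DsRed ratio, PSI derived from sequencing read proportions per bin multiplied by bin number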
measurement parameters: c terminus: a fixed tail appended
Reported protein stability index values are given for each entry in this list.
# output: bare number, no unit

Illustrative cases are given below, each with its answer.
| mutant id | observed result |
| --- | --- |
| G7Q | 2.49 |
| D22E | 2.33 |

Look up protein stability index for this variant: A5M
3.05

Look up protein stability index for this variant: W2C
2.52

Look up protein stability index for this variant: F13P
3.54

Look up protein stability index for this variant: G7R
1.75

Look up protein stability index for this variant: S24Y
1.86

src = the supplement of paper PMC10567573
